Test system: Human lymphoma SCC-3 cells
METHOD_NOTES: SCC-3 cell growth inhibition test (MTT method)
Assay type: cell-based
MEASUREMENT_PARAMETERS: 72-hour culture
Labelling: IC50 reported below 2000 nM becomes 1; at or above becomes -1.

Query :: Just wondering, is IC50 of C=Cc1ccc(-c2cccc(C(=O)Nc3nnc(-c4ccco4)o3)c2)cc1 below 2000 nM?
Result :: 1

Query :: API: query returns whether the molecule falls strictly under 2000 nM in IC50. Query: N#Cc1ccc(-c2cccc(C(=O)Nc3nnc(-c4ccco4)o3)c2)cc1
Result :: 1

Query :: Threshold test, IC50 < 2000 nM: CN1CCc2cc(-c3cccc(C(=O)Nc4nnc(-c5ccco5)o4)c3)ccc21
Result :: 1

Query :: A record lists O=Cc1ccc(-c2cccc(C(=O)Nc3nnc(-c4ccco4)o3)c2)cc1 . Is its IC50 below 2000 nM?
Result :: -1

Query :: Regarding O=C(Nc1nnc(-c2ccco2)o1)c1cccc(-c2ccc(-c3ccc4ccccc4c3)cc2)c1 , kindly confirm whether its IC50 is beneath 2000 nM.
Result :: 1

Query :: Determine if COc1ccc(-c2cc(C(=O)Nc3nnc(-c4ccco4)o3)c3sc(N4CCCCC4)nc3n2)cc1OC shows IC50 strictly lower than 2000 nM.
Result :: 1

Query :: Record COc1cc([N+](=O)[O-])ccc1-c1ccc(C(=O)Nc2nnc(-c3ccco3)o2)o1 : is its IC50 strictly below 2000 nM?
Result :: -1

Query :: Answer whether the molecule O=C(Nc1nnc(-c2ccco2)o1)c1cc(-c2ccccc2)nc2nc(N3CCCCC3)sc12 has IC50 strictly less than 2000 nM
Result :: 1

Query :: Determine if NS(=O)(=O)c1ccc(-c2cccc(C(=O)Nc3nnc(-c4ccco4)o3)c2)cc1 shows IC50 strictly lower than 2000 nM.
Result :: -1

* * *

Test system: STAT3
METHOD_NOTES: STAT3 transcription inhibition test (reporter gene method)
Format: cell-based
MEASUREMENT_PARAMETERS: Homo sapiens; compound at 100 μM; STAT3 reporter HeLa stable cell line, oncostatin M 10 ng/mL, 4 hours; read-out: STAT3 transcription inhibitory activity (%)
Counter-ions that a name gives are not always drawn.
Label rule, in plain words: inhibition at 100 µM of 80% and up is true, under 80% is false.

Query :: Does inhibition at 100 µM meet or surpass 80% for COc1ccc(-c2cc(C(=O)Nc3nnc(-c4ccco4)o3)c3sc(N4CCCCC4)nc3n2)cc1OC ?
Result :: true

Query :: Reported inhibition at 100 µM at or above 80%? Cc1ccc(-c2cc(C(=O)Nc3nnc(-c4ccco4)o3)c3sc(N4CCCCC4)nc3n2)cc1
Result :: true

Query :: Hi team, for Cn1ccc2cc(-c3cccc(C(=O)Nc4nnc(-c5ccco5)o4)c3)ccc21 , is the recorded inhibition at 100 µM at or above 80%?
Result :: true

Query :: Confirm if inhibition at 100 µM reported for the compound O=C(Nc1nnc(-c2ccco2)o1)c1cccc(-c2ccc(-c3ccc4ccccc4c3)cc2)c1 is 80% or above.
Result :: false

Query :: Entry O=C(Nc1nnc(-c2ccco2)o1)c1cccc(-c2ccc(-c3ccccc3)c(F)c2)c1 : is its inhibition at 100 µM no less than 80%?
Result :: false

Query :: Say whether O=C(Nc1nnc(-c2ccco2)o1)c1ccc(-c2cc(Cl)cc(Cl)c2)o1 shows inhibition at 100 µM of 80% or more.
Result :: false

Query :: Record O=C(Nc1nnc(-c2ccco2)o1)c1cccc(-c2ccc(N3CCOCC3)cc2)c1 [Compound Ia-87, formate] ; criterion: inhibition at 100 µM no lower than 80%. Met?
Result :: true

* * *

Tested on: STAT3
METHOD_NOTES: STAT3 transcription inhibition test (reporter gene method)
Assay type: cell-based
MEASUREMENT_PARAMETERS: Homo sapiens; compound at 100 μM; STAT3 reporter HeLa stable cell line, oncostatin M 10 ng/mL, 4 hours; read-out: STAT3 transcription inhibitory activity (%)
I'd appreciate it if you could label each record using inhibition at 100 µM and these ranges: A = under 60%, B = from 60% up to 80%, C = 80% and over

Query :: Category lookup for the compound O=C(Nc1nnc(-c2ccco2)o1)c1ccc(-c2ccc([N+](=O)[O-])cc2Cl)o1 [Compound Ic-14]
Result :: A

Query :: For this compound, which bin applies? Cc1oc(-c2ccccc2)cc1C(=O)Nc1nnc(-c2ccco2)o1 [Compound Ic-22]
Result :: B

Query :: Lab note: sort CCc1ccc(-c2ccc(-c3cccc(C(=O)Nc4nnc(-c5ccco5)o4)c3)cc2)cc1 [Compound Ia-78] into the matching inhibition at 100 µM band.
Result :: B

Query :: Which band does O=C(Nc1nnc(-c2ccco2)o1)c1cc(-c2ccc(Cl)cc2)nc(-c2ccc(Br)cc2)c1 [Compound Ia-56] fall in?
Result :: C

Query :: Kindly identify the class of O=C(Nc1nnc(-c2ccsc2)o1)c1cc(-c2ccccc2)nc2nc(N3CCCCC3)sc12 [Compound Ib-19] .
Result :: C

Query :: Where would O=C(Nc1nnc(-c2ccco2)o1)c1cccc(-c2ccc(F)cc2)c1 [Compound Ia-10] land among the classes by reported inhibition at 100 µM?
Result :: C

Query :: Exercise: read the entry CC(C)(C)c1ccc(-c2cccc(C(=O)Nc3nnc(-c4ccco4)o3)c2)cc1 [Compound Ia-14] and state which class it falls under.
Result :: A

Query :: Which inhibition at 100 µM band matches O=C(Nc1nnc(-c2ccco2)o1)c1cccc(-c2ccc(C(=O)c3ccccc3)cc2)c1 [Compound Ia-19] ?
Result :: A

Query :: Assign a bin to O=C(Nc1nnc(-c2ccco2)o1)c1cccc(-c2ccc(-c3cccc4ccccc34)cc2)c1 [Compound Ia-82]
Result :: A

Query :: Class? Entry: O=Cc1ccc(-c2cccc(C(=O)Nc3nnc(-c4ccco4)o3)c2)cc1 [Compound Ia-17]
Result :: C

Query :: Entry O=C(Nc1nnc(-c2ccco2)o1)c1ccc(-c2cc([N+](=O)[O-])ccc2Cl)o1 [Compound Ic-19] belongs to which category?
Result :: A

Query :: The entry to classify is Cn1ccc2cc(-c3cc(F)cc(C(=O)Nc4nnc(-c5ccco5)o4)c3)ccc21 [Compound Ia-52] ; which class holds it?
Result :: B

Query :: Hello team, could you let me know which band the following compound falls into: C[Si](C)(C)c1ccc(-c2cccc(C(=O)Nc3nnc(-c4ccco4)o3)c2)cc1 [Compound Ia-62]
Result :: B

Query :: Each compound maps to one class by inhibition at 100 µM. Which class for O=C(Nc1nnc(-c2ccco2)o1)c1cccc(-c2ccc3ccccc3c2)c1 [Compound Ia-33] ?
Result :: C

Query :: Exercise: read the entry Cn1ccc2ccc(-c3cccc(C(=O)Nc4nnc(-c5ccco5)o4)c3)cc21 [Compound Ia-43] and state which class it falls under.
Result :: B

* * *

Tested on: Human lymphoma SCC-3 cells
METHOD_NOTES: SCC-3 cell growth inhibition test (MTT method)
Format: cell-based
MEASUREMENT_PARAMETERS: 72-hour culture
Counter-ions that a name gives are not always drawn.
READOUT_KIND: IC50
Value and unit, in that order.

Record Cn1ccc2cc(-c3cccc(C(=O)Nc4nnc(-c5ccco5)o4)c3)ccc21 [Compound Ia-50] . Reported IC50: 1100 nM

So for O=C(Nc1nnc(-c2ccco2)o1)c1cccc(-c2ccc(N3CCOCC3)cc2)c1 [Compound Ia-87, formate] , the logged IC50 turned out to be 600 nM

The measured IC50 associated with O=C(Nc1nnc(-c2ccco2)o1)c1cccc(-c2ccc(-c3ccccc3)c(F)c2)c1 [Compound Ia-76] reads 200 nM

Quick note, IC50 for CC(=O)c1ccc(-c2cccc(C(=O)Nc3nnc(-c4ccco4)o3)c2)cc1 [Compound Ia-18] landed at 1900 nM

* * *

System: Human lymphoma SCC-3 cells
METHOD_NOTES: SCC-3 cell growth inhibition test (MTT method)
Type: cell-based
MEASUREMENT_PARAMETERS: 72-hour culture
READOUT_KIND: pIC50
# pIC50: negative log10 of molar concentration; output just the value

Summary for this molecule, O=C(Nc1nnc(-c2ccco2)o1)c1cccc(-c2ccc(Cl)cc2)c1 : pIC50 is 5.74

Sure, the documented pIC50 for Cn1ccc2ccc(-c3cccc(C(=O)Nc4nnc(-c5ccco5)o4)c3)cc21 is 5.74

* * *

Provide the recorded inhibition at 100 µM for the entries that follow.
System: STAT3
METHOD_NOTES: STAT3 transcription inhibition test (reporter gene method)
Assay type: cell-based
MEASUREMENT_PARAMETERS: Homo sapiens; compound at 100 μM; STAT3 reporter HeLa stable cell line, oncostatin M 10 ng/mL, 4 hours; read-out: STAT3 transcription inhibitory activity (%)
Numeric only. Scale: %

Query COc1ccc(-c2cccc(C(=O)Nc3nnc(-c4ccco4)o3)c2)cc1 [Compound Ia-16] yields inhibition at 100 µM of 57

Noted for CN1CCc2cc(-c3cccc(C(=O)Nc4nnc(-c5ccco5)o4)c3)ccc21 [Compound Ia-44] : its inhibition at 100 µM reads 58

// inhibition at 100 µM lookup, compound = O=C(Nc1nnc(-c2ccco2)o1)c1cc(-c2cccs2)nc2nc(N3CCCCC3)sc12 [Compound Ib-27] , result: 67

GET /value?item= O=C(Nc1nnc(-c2ccco2)o1)c1cccc(-c2ccc3c(c2)OCO3)c1 [Compound Ia-42] &field=inhibition at 100 µM returns 88

// field: inhibition at 100 µM; key: CC(C)Oc1ccc(-c2ccc(-c3cccc(C(=O)Nc4nnc(-c5ccco5)o4)c3)cc2)cc1 [Compound Ia-81] ; value = 63

Please fill in: inhibition at 100 µM reported for O=C(Nc1nnc(-c2ccco2)o1)c1cc(-c2cccc(Cl)c2)nc2nc(N3CCCCC3)sc12 [Compound Ib-2] = 68

inhibition at 100 µM measured on O=C(Nc1nnc(-c2ccco2)o1)c1cccc(-c2ccc(CCN3CCOCC3)cc2)c1 [Compound Ia-90] = 97

Sample O=C(Nc1nnc(-c2ccco2)o1)c1cccc(-c2ccc(Oc3ccccc3)cc2)c1 [Compound Ia-66] ; inhibition at 100 µM observed: 58

Documented inhibition at 100 µM of NS(=O)(=O)c1ccc(-c2cccc(C(=O)Nc3nnc(-c4ccco4)o3)c2)cc1 [Compound Ia-25] : 70

# compound Cc1ccc(-c2cccc(C(=O)Nc3nnc(-c4ccco4)o3)c2)o1 [Compound Ia-34] ; its inhibition at 100 µM = 78

Value of inhibition at 100 µM reported for the compound O=C(Nc1nnc(-c2ccco2)o1)c1cccc(-c2cccc([N+](=O)[O-])c2)c1 [Compound Ia-5] is 98

inhibition at 100 µM for Cc1cc(C#N)ccc1-c1cccc(C(=O)Nc2nnc(-c3ccco3)o2)c1 [Compound Ia-29] is 81

O=C(Nc1nnc(-c2ccco2)o1)c1cccc(-c2ccc(-c3ccc(Cl)cc3)cc2)c1 [Compound Ia-77] has a reported inhibition at 100 µM of 80

// sample O=C(Nc1nnc(-c2ccco2)o1)c1cccc(-c2ccc(C3CCCCC3)cc2)c1 [Compound Ia-84] , its inhibition at 100 µM was 74

Measured inhibition at 100 µM, O=C(Nc1nnc(-c2ccco2)o1)c1cccc(-c2ccccc2)c1 [Compound Ia-1] : 60

Item: Cc1ccc(-c2cccc(C(=O)Nc3nnc(-c4ccco4)o3)c2)cc1 [Compound Ia-12] | inhibition at 100 µM: 83
